Test system: Ogataea polymorpha strain NBRC0799-derived carbonyl reductase
PROTOCOL DETAILS: Reactivity of purified Ogataea polymorpha strain NBRC0799-derived carbonyl reductase to substrates (reduction reaction, NADH decrease at 340 nm)
Type: biochemical
CONDITION SET: (a) Reduction reaction; substrate 50 mM, NADH 0.1 mM, 168 mM sodium phosphate buffer pH 6.0, 30° C.; enzyme activity with acetone as substrate defined as 100%

MOLECULE | Relative Activity (%)
CCC=O [Propionaldehyde] | 141%
CC(=O)C(F)F [1,1-Difluoroacetone] | 58%
CCC(C)=O [2-Butanone] | 132%
CC(C)=O [Acetone, reference compound] | 100%
O=C(CF)CF [1,3-Difluoroacetone] | 52%
CC(=O)CF [Fluoroacetone] | 211%
CCCC=O [Butyraldehyde] | 193%
CC=O [Acetaldehyde] | 330%
CC(=O)C(F)(F)F [1,1,1-Trifluoroacetone] | 50%
CC(=O)CC(F)(F)F [4,4,4-Trifluoro-2-butanone] | 228%
